Can you tell me shrunken log2 fold change for the items I'm about to list?
Test system: Escherichia coli TOP10;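 note: peptides expressed intracellularly from a pBAD plasmid library in pooled LB shake-flask culture, induced with 0.3% L-arabinose, DNA abundance read by NGS, three biological replicates, DESeq2 with apeglm shrinkage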
Measurement description: shrunken log2 fold change of peptide-encoding DNA abundance (4.5 h post-induction vs induction); higher = less antimicrobial activity (less host growth inhibition)
Stated conditions: time post-induction: 4.5 h; library: site-saturation at positions 5, 18, 19, 20
Respond with the number and no other words.

Prompt: Returns the measured shrunken log2 fold change for the input sequence. Input: `RRIRHRPPRLPRPRPRPHNTPRP`
Completion: -0.709

Prompt: Returns the measured shrunken log2 fold change for the input sequence. Input: `RRIRQRPPRLPRPRPRPHRVPRP`
Completion: -0.00151

Prompt: Returns the measured shrunken log2 fold change for the input sequence. Input: `RRIRERPPRLPRPRPRPMSWPRP`
Completion: 0.13

Prompt: Returns the measured shrunken log2 fold change for the input sequence. Input: `RRIRARPPRLPRPRPRPALMPRP`
Completion: 0.534

Prompt: Returns the measured shrunken log2 fold change for the input sequence. Input: `RRIRQRPPRLPRPRPRPIEDPRP`
Completion: -0.126

Prompt: Returns the measured shrunken log2 fold change for the input sequence. Input: `RRIRCRPPRLPRPRPRPAKHPRP`
Completion: -0.23

Prompt: Returns the measured shrunken log2 fold change for the input sequence. Input: `RRIRHRPPRLPRPRPRPAHVPRP`
Completion: 0.128

Prompt: Returns the measured shrunken log2 fold change for the input sequence. Input: `RRIRLRPPRLPRPRPRPFDDPRP`
Completion: -0.00884

Prompt: Returns the measured shrunken log2 fold change for the input sequence. Input: `RRIRKRPPRLPRPRPRPHVWPRP`
Completion: 0.82

Prompt: Returns the measured shrunken log2 fold change for the input sequence. Input: `RRIRRRPPRLPRPRPRPKILPRP`
Completion: -0.199

Prompt: Returns the measured shrunken log2 fold change for the input sequence. Input: `RRIRTRPPRLPRPRPRPPSLPRP`
Completion: -0.11

Prompt: Returns the measured shrunken log2 fold change for the input sequence. Input: `RRIRERPPRLPRPRPRPYFNPRP`
Completion: -0.583

Prompt: Returns the measured shrunken log2 fold change for the input sequence. Input: `RRIRHRPPRLPRPRPRPQVRPRP`
Completion: -0.134

Prompt: Returns the measured shrunken log2 fold change for the input sequence. Input: `RRIRKRPPRLPRPRPRPFPSPRP`
Completion: 0.175

Prompt: Returns the measured shrunken log2 fold change for the input sequence. Input: `RRIRARPPRLPRPRPRPRLNPRP`
Completion: 0.316

Prompt: Returns the measured shrunken log2 fold change for the input sequence. Input: `RRIRRRPPRLPRPRPRPSMSPRP`
Completion: 0.0591

Prompt: Returns the measured shrunken log2 fold change for the input sequence. Input: `RRIRARPPRLPRPRPRPFRWPRP`
Completion: -0.0369

Prompt: Returns the measured shrunken log2 fold change for the input sequence. Input: `RRIRFRPPRLPRPRPRPNVWPRP`
Completion: 0.0725

Prompt: Returns the measured shrunken log2 fold change for the input sequence. Input: `RRIRGRPPRLPRPRPRPCDIPRP`
Completion: -0.00533

Prompt: Returns the measured shrunken log2 fold change for the input sequence. Input: `RRIRARPPRLPRPRPRPINLPRP`
Completion: -0.376

Prompt: Returns the measured shrunken log2 fold change for the input sequence. Input: `RRIRNRPPRLPRPRPRPPFLPRP`
Completion: -0.0418

Prompt: Returns the measured shrunken log2 fold change for the input sequence. Input: `RRIRTRPPRLPRPRPRPNVMPRP`
Completion: 0.0814

Prompt: Returns the measured shrunken log2 fold change for the input sequence. Input: `RRIRGRPPRLPRPRPRPNGMPRP`
Completion: 0.106

Prompt: Returns the measured shrunken log2 fold change for the input sequence. Input: `RRIRKRPPRLPRPRPRPENAPRP`
Completion: 0.116

Prompt: Returns the measured shrunken log2 fold change for the input sequence. Input: `RRIRCRPPRLPRPRPRPHWCPRP`
Completion: -0.155

Prompt: Returns the measured shrunken log2 fold change for the input sequence. Input: `RRIRNRPPRLPRPRPRPQSEPRP`
Completion: -0.0564

Prompt: Returns the measured shrunken log2 fold change for the input sequence. Input: `RRIRRRPPRLPRPRPRPAQQPRP`
Completion: 0.938

Prompt: Returns the measured shrunken log2 fold change for the input sequence. Input: `RRIRNRPPRLPRPRPRPTMTPRP`
Completion: 0.149

Prompt: Returns the measured shrunken log2 fold change for the input sequence. Input: `RRIRLRPPRLPRPRPRPEPYPRP`
Completion: -0.305

Prompt: Returns the measured shrunken log2 fold change for the input sequence. Input: `RRIRDRPPRLPRPRPRPPVGPRP`
Completion: 0.348

Prompt: Returns the measured shrunken log2 fold change for the input sequence. Input: `RRIRWRPPRLPRPRPRPWNNPRP`
Completion: -0.77

Prompt: Returns the measured shrunken log2 fold change for the input sequence. Input: `RRIRARPPRLPRPRPRPEARPRP`
Completion: 1.42

Prompt: Returns the measured shrunken log2 fold change for the input sequence. Input: `RRIRPRPPRLPRPRPRPAYGPRP`
Completion: 0.144

Prompt: Returns the measured shrunken log2 fold change for the input sequence. Input: `RRIRMRPPRLPRPRPRPIWHPRP`
Completion: -0.0798

Prompt: Returns the measured shrunken log2 fold change for the input sequence. Input: `RRIRHRPPRLPRPRPRPMPSPRP`
Completion: 0.0183

Prompt: Returns the measured shrunken log2 fold change for the input sequence. Input: `RRIRRRPPRLPRPRPRPAQAPRP`
Completion: 0.233

Prompt: Returns the measured shrunken log2 fold change for the input sequence. Input: `RRIRDRPPRLPRPRPRPCGYPRP`
Completion: 0.0572

Prompt: Returns the measured shrunken log2 fold change for the input sequence. Input: `RRIRVRPPRLPRPRPRPKHQPRP`
Completion: 0.0697

Prompt: Returns the measured shrunken log2 fold change for the input sequence. Input: `RRIRMRPPRLPRPRPRPCKWPRP`
Completion: 0.0169

Prompt: Returns the measured shrunken log2 fold change for the input sequence. Input: `RRIRHRPPRLPRPRPRPLQIPRP`
Completion: 0.0781

Prompt: Returns the measured shrunken log2 fold change for the input sequence. Input: `RRIRTRPPRLPRPRPRPRNLPRP`
Completion: -0.218

Prompt: Returns the measured shrunken log2 fold change for the input sequence. Input: `RRIRERPPRLPRPRPRPKGIPRP`
Completion: -0.000842

Prompt: Returns the measured shrunken log2 fold change for the input sequence. Input: `RRIRKRPPRLPRPRPRPASQPRP`
Completion: 0.0905

Prompt: Returns the measured shrunken log2 fold change for the input sequence. Input: `RRIRQRPPRLPRPRPRPSTYPRP`
Completion: -0.884

Prompt: Returns the measured shrunken log2 fold change for the input sequence. Input: `RRIRGRPPRLPRPRPRPKREPRP`
Completion: -0.00218

Prompt: Returns the measured shrunken log2 fold change for the input sequence. Input: `RRIRYRPPRLPRPRPRPTQMPRP`
Completion: -0.213

Prompt: Returns the measured shrunken log2 fold change for the input sequence. Input: `RRIRQRPPRLPRPRPRPDRRPRP`
Completion: 0.00167

Prompt: Returns the measured shrunken log2 fold change for the input sequence. Input: `RRIRIRPPRLPRPRPRPCTAPRP`
Completion: -0.285

Prompt: Returns the measured shrunken log2 fold change for the input sequence. Input: `RRIRWRPPRLPRPRPRPKFRPRP`
Completion: 0.077

Prompt: Returns the measured shrunken log2 fold change for the input sequence. Input: `RRIRERPPRLPRPRPRPCEEPRP`
Completion: -0.125

Prompt: Returns the measured shrunken log2 fold change for the input sequence. Input: `RRIRSRPPRLPRPRPRPNGPPRP`
Completion: -0.42

Prompt: Returns the measured shrunken log2 fold change for the input sequence. Input: `RRIRSRPPRLPRPRPRPIMFPRP`
Completion: -0.304

Prompt: Returns the measured shrunken log2 fold change for the input sequence. Input: `RRIRKRPPRLPRPRPRPRWCPRP`
Completion: 0.251

Prompt: Returns the measured shrunken log2 fold change for the input sequence. Input: `RRIRSRPPRLPRPRPRPCWPPRP`
Completion: 0.42

Prompt: Returns the measured shrunken log2 fold change for the input sequence. Input: `RRIRERPPRLPRPRPRPFMQPRP`
Completion: -0.178

Prompt: Returns the measured shrunken log2 fold change for the input sequence. Input: `RRIRDRPPRLPRPRPRPTWDPRP`
Completion: 0.629

Prompt: Returns the measured shrunken log2 fold change for the input sequence. Input: `RRIRDRPPRLPRPRPRPHRQPRP`
Completion: -0.0279

Prompt: Returns the measured shrunken log2 fold change for the input sequence. Input: `RRIRNRPPRLPRPRPRPELFPRP`
Completion: -0.0281

Prompt: Returns the measured shrunken log2 fold change for the input sequence. Input: `RRIRCRPPRLPRPRPRPNKDPRP`
Completion: -0.534

Prompt: Returns the measured shrunken log2 fold change for the input sequence. Input: `RRIRARPPRLPRPRPRPWPIPRP`
Completion: 0.179

Prompt: Returns the measured shrunken log2 fold change for the input sequence. Input: `RRIRGRPPRLPRPRPRPGRKPRP`
Completion: 0.747

Prompt: Returns the measured shrunken log2 fold change for the input sequence. Input: `RRIRQRPPRLPRPRPRPRGSPRP`
Completion: 0.0908

Prompt: Returns the measured shrunken log2 fold change for the input sequence. Input: `RRIRDRPPRLPRPRPRPGRIPRP`
Completion: -0.136

Data provenance: the supplement of paper PMC9112550
